Provenance of the data: patent US9090593B2

Assay target: full length recombinant Pim-2 protein (Homo sapiens, UniProt Q9P1W9)
Construct: by full length recombinant Pim-1, Pim-2, or Pim-3 protein; hexahistidine tag followed by a thrombin cleavage site (N); made in house; host or cells: Sf9 (baculovirus) or E. coli (pET28)
Sequence (Q9P1W9 whole entry): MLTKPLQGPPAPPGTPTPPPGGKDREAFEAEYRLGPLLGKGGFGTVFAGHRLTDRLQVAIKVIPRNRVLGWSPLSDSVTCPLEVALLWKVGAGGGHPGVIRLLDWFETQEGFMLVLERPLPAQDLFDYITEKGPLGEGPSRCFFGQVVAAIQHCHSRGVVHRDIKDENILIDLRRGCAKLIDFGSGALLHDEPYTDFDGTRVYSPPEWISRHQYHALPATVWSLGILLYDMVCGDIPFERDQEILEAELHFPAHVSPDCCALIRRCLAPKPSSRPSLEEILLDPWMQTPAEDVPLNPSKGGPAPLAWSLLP
Procedure summary: Pim-2 enzyme assay (HTRF, phosphorylation of biotinylated-BAD (S112) peptide)
Type: biochemical
Condition description: read-out: Pim2_IC50
Endpoint: IC50 (nM)
Value expressed in nM; do not type the unit.

Example cases with answers are listed next.
Reported IC50 for CS(=O)(=O)c1cc(F)c(-c2ccc3[nH]nc(-c4cncc(O[C@H]5CNCCC56CC6)n4)c3c2)c(F)c1 [Example 467] : what is it?
3

Reported IC50 for O=C(Nc1ccc(-c2ccc3[nH]cc(-c4cncc(O[C@@H]5CCCNC5)n4)c3c2)cc1)C1CC1 [Example 311] : what is it?
25

New cases:
Reported IC50 for O[C@@H]1CN(c2cncc(-c3n[nH]c4ccc(-c5c(F)cccc5F)cc34)n2)CC[C@@H]1O (racemic) [Example 248] : what is it?
43

Reported IC50 for CC(C)Nc1nc(-c2c[nH]c3ccc(-c4cncc(C5CC5)n4)cc23)cc(=O)[nH]1 [Example 287] : what is it?
87

###

Below is a list of entries, each paired with its recorded log10(IC50) value.
Assay target: full length recombinant Pim-1 protein (Homo sapiens)
Construct: by full length recombinant Pim-1, Pim-2, or Pim-3 protein; hexahistidine tag followed by a thrombin cleavage site (N); made in house; host or cells: Sf9 (baculovirus) or E. coli (pET28)
Sequence (P11309 whole entry): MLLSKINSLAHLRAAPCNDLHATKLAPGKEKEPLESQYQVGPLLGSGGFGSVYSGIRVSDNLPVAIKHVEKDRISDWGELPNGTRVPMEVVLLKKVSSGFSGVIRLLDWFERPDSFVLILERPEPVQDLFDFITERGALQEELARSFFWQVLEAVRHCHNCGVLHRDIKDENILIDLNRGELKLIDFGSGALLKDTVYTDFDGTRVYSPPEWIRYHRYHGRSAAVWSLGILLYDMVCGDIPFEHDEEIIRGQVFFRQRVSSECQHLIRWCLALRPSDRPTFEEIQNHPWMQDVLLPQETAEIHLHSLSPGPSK
Procedure summary: Pim-1 enzyme assay (HTRF, phosphorylation of biotinylated-BAD (S112) peptide)
Assay type: biochemical
Condition description: read-out: Pim_1_IC50
On a log10 scale: recorded IC50, unit nM.

Example cases with answers are listed next.
Reported log10(IC50) for FC(F)(F)COc1cncc(-c2n[nH]c3ccc(-c4cncc(C5CC5)n4)cc23)n1 : what is it?
1.76

Reported log10(IC50) for CC1CCN(c2cccc(-c3ccc4[nH]cc(-c5cncc(O[C@@H]6CCCNC6)n5)c4c3)n2)CC1 : what is it?
1.72

Reported log10(IC50) for COc1cc(C#N)cc(-c2ccc3[nH]cc(-c4cncc(O[C@@H]5CCCNC5)n4)c3c2)c1OC : what is it?
2.02

Reported log10(IC50) for Fc1cccc(F)c1-c1ccc2[nH]nc(-c3cncc(OC4CNCC5CC54)n3)c2c1 (stereo not shown) [Example 444] : what is it?
0.60

Reported log10(IC50) for Brc1ccc2[nH]nc(-c3cncc(O[C@@H]4CNCCC45CC5)n3)c2c1 : what is it?
1.28

New cases:
Reported log10(IC50) for Cc1nc(-c2cccc(-c3ccc4[nH]cc(-c5cncc(O[C@@H]6CCCNC6)n5)c4c3)c2)cs1 : what is it?
1.11

Reported log10(IC50) for CC(C)Oc1cncc(-c2ccc3[nH]cc(-c4nnc(N5CCC(N)CC5)o4)c3c2)n1 : what is it?
1.34

Reported log10(IC50) for CCCOc1c(OC)cc(C#N)cc1-c1ccc2[nH]cc(-c3cncc(O[C@@H]4CCCNC4)n3)c2c1 : what is it?
2.56

Reported log10(IC50) for c1cc(OCC2CC2)ncc1-c1ccc2[nH]cc(-c3cncc(O[C@@H]4CCCNC4)n3)c2c1 : what is it?
0.90

Reported log10(IC50) for CC(C)c1ccc(-c2ccc3[nH]cc(-c4cncc(O[C@@H]5CCCNC5)n4)c3c2)cc1 : what is it?
1.49
